assaySystem: F508delCFTR (Homo sapiens, UniProt P13569, DEL508-508)
Construct: expressed in transfected cells; host or cells: CFBE41o- human lung-derived epithelial cells (CFBE4lo-F508delCFTR-HRP), doxycycline-inducible
Sequence (P13569 with tags, fused parts or gaps DEL508-508): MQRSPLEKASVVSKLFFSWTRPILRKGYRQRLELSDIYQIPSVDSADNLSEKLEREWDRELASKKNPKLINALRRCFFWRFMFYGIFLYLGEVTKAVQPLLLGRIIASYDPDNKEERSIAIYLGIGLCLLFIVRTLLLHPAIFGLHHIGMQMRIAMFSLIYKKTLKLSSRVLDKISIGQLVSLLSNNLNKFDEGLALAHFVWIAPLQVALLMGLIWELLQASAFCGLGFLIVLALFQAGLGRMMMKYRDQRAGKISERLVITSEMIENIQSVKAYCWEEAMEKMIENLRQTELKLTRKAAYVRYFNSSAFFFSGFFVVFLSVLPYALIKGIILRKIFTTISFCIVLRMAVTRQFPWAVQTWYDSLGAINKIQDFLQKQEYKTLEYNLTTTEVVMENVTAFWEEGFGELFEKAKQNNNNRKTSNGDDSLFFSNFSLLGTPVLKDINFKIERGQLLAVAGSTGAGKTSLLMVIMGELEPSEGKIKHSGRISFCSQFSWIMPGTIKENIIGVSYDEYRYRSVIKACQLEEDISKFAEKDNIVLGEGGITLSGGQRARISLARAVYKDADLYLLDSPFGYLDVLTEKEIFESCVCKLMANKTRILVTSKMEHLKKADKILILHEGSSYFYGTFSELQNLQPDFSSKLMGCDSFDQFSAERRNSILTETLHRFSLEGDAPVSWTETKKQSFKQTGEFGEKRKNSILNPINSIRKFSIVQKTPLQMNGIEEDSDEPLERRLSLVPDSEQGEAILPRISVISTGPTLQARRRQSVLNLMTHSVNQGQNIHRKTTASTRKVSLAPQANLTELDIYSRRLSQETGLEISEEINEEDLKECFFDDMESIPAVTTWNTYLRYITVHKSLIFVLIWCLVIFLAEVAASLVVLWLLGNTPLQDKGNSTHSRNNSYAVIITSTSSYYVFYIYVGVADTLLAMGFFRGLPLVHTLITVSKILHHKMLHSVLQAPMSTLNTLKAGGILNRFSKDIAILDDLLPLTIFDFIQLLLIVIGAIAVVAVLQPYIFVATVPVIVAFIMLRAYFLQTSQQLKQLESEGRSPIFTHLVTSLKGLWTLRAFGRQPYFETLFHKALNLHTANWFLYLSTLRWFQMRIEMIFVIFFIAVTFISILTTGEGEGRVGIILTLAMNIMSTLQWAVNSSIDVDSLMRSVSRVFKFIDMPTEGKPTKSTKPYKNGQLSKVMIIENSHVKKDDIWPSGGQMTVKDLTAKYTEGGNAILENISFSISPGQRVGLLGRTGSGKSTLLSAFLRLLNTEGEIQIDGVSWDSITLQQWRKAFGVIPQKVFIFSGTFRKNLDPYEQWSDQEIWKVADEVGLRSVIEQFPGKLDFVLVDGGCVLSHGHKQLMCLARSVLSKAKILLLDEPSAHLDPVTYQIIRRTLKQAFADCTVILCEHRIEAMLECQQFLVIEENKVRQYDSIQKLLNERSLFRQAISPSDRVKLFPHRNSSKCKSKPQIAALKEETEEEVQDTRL
procedureSummary: Cell Surface Expression-Horse Radish Peroxidase (CSE-HRP) Assay
Type: cell-based
appliedConditions: CSE-HRP; test compound without co-corrector; read-out: EC50 (without co-corrector)
measuredProperty: EC50

Cc1cc(C(F)(F)F)cc(N[C@@H]2[C@@H](C(C)(C)C)[C@H](C(=O)O)N(C(=O)Cc3ccccc3)[C@@H]2c2ccccc2)n1 (racemic) [II-55] | > 10 µM
COc1ncc(C(F)(F)F)cc1CN[C@H]1[C@H](C(C)(C)C)[C@@H](C(=O)O)N(C(=O)[C@@H]2CCCO2)[C@H]1c1ccccc1C [Example I-262] | 1 to 10 µM
COc1ccc(-c2ccc(F)cc2F)cc1CN[C@H]1[C@H](C(C)(C)C)[C@@H](C(=O)O)N(C(=O)C2CCCCC2)[C@H]1c1ccccc1 [II-283] | < 1 µM
CCc1ccccc1[C@H]1[C@@H](NCc2cc(C3CCC3)cnc2OC)[C@H](C(C)(C)C)[C@@H](C(=O)O)N1C(=O)[C@@H]1CCCCO1 [Example I-297] | 1 to 10 µM
CC(C)(C)[C@H]1[C@H](NCc2cc(F)cc(F)c2)[C@H](c2ccccc2)N(C(=O)C2CCCCC2)[C@@H]1C(=O)O [II-115] | > 10 µM

*Q* What does the data say about its EC50? Entry: COc1ncc(C(F)(F)F)cc1CN[C@H]1[C@H](C(C)(C)C)[C@@H](C(=O)O)N(C(=O)[C@H]2C[C@@H]3CC[C@H]2O3)[C@H]1c1ccccc1C(C)C (relative stereo) [Example I-270]
*A* < 1 µM

====

assaySystem: F508delCFTR (Homo sapiens, UniProt P13569, DEL508-508)
Construct: expressed in transfected cells; host or cells: CFBE41o- human lung-derived epithelial cells (CFBE4lo-F508delCFTR-HRP), doxycycline-inducible
procedureSummary: Cell Surface Expression-Horse Radish Peroxidase (CSE-HRP) Assay;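 as to Maximum % activity (with co-corrector): co-corrector and positive control are both the same reference corrector at 2 µM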
Type: cell-based
appliedConditions: with co-corrector (2 μM of 3-[(2R,4R)-4-({[1-(2,2-difluoro-1,3-benzodioxol-5-yl)cyclopropyl]carbonyl}amino)-7-methoxy-3,4-dihydro-2H-chromen-2-yl]benzoic acid); maximum at any tested concentration, normalized to on-plate positive control
measuredProperty: Maximum % activity (with co-corrector)

Recorded results for 10 molecules are shown here.
CC(C)(C)[C@@H]1[C@@H](NCc2cc(C(F)(F)F)ccc2OCCCS(C)(=O)=O)[C@@H](c2ccccc2)N(C(=O)C2CCCCC2)[C@H]1C(=O)O (racemic) [III-84] | + (<150)
COc1ccc(C(C)(C)C)cc1CN[C@H]1[C@H](C(C)(C)C)[C@@H](C(=O)O)N(C(=O)C2CCc3cc(F)ccc3O2)[C@H]1c1cccnc1N(C)C (some centres unmarked) [II-482] | +++ (≥350)
C=CCOC(=O)N1[C@H](C(=O)O)[C@@H](C(C)(C)C)[C@H](NCc2cc(C(C)(C)C)ccc2OC)[C@@H]1c1ccccc1 [II-391] | +++ (≥350)
COc1ccc(C(C)(C)C)cc1CN[C@H]1[C@H](C(C)(C)C)[C@@H](C(=O)O)N(C(=O)C2CCc3ccccc3O2)[C@H]1c1cccnc1N(C)C (single isomer, unassigned) [II-438] | ++ (≥150 and <350)
CC(C)(C)[C@@H]1[C@@H](NCc2cc(S(C)(=O)=O)ccc2O)[C@@H](c2ccccc2)N(C(=O)C2CCCCC2)[C@H]1C(=O)O (racemic) [III-79] | + (<150)
COc1ccc(C(C)(C)C)cc1CN[C@H]1[C@H](C(C)(C)C)[C@@H](C(=O)O)N(C(=O)C2CC2)[C@H]1c1ccccc1 [II-333] | +++ (≥350)
COc1cccc([C@@H]2[C@H](Nc3cc(C(F)(F)F)cc(C)n3)[C@@H](C(C)(C)C)[C@H](C(=O)O)N2C(=O)C2C3COCC32)n1 (mixture of isomers) [III-62] | ++ (≥150 and <350)
COc1ncc(C(F)(F)F)cc1N[C@H]1[C@H](C(C)(C)C)[C@@H](C(=O)O)N(C(=O)C2CCCCC2)[C@H]1c1cccnc1N(C)C [II-461] | ++ (≥150 and <350)
COc1ccc(C(C)(C)C)cc1CN[C@H]1[C@H](C(C)(C)C)[C@@H](C(=O)O)N(C(=O)[C@@H]2CCC[C@@H](OC(F)(F)F)C2)[C@H]1c1cccnc1OC [II-540] | +++ (≥350)
COc1ccc(C(C)(C)C)cc1CN[C@H]1[C@H](C(C)(C)C)[C@@H](C(=O)O)N(C(=O)C2COc3ccccc3O2)[C@H]1c1cccnc1N(C)C (single isomer, unassigned) [II-472] | ++ (≥150 and <350)

Next item in the queue.
*Q* Look up Maximum % activity (with co-corrector): CC(C)(C)[C@@H]1[C@@H](Nc2cc(C(F)(F)F)ccn2)[C@@H](c2ccccc2)N(C(=O)C2CCCCC2)[C@H]1C(=O)O (racemic) [III-4]
*A* +++ (≥350)

====

assaySystem: F508delCFTR (Homo sapiens, UniProt P13569, DEL508-508)
Construct: expressed in transfected cells; host or cells: CFBE41o- human lung-derived epithelial cells (CFBE4lo-F508delCFTR-HRP), doxycycline-inducible
procedureSummary: Cell Surface Expression-Horse Radish Peroxidase (CSE-HRP) Assay
Format: cell-based
appliedConditions: with co-corrector (2 μM of 3-[(2R,4R)-4-({[1-(2,2-difluoro-1,3-benzodioxol-5-yl)cyclopropyl]carbonyl}amino)-7-methoxy-3,4-dihydro-2H-chromen-2-yl]benzoic acid); read-out: EC50 (with co-corrector)
pEC50: −log10 of the molar value.
Below, each of the compounds is paired with its reported pEC50 value.

*Q* I have this compound here, COc1ncc(C(F)(F)F)cc1CN[C@H]1[C@H](C(C)(C)C)[C@@H](C(=O)O)N(C(=O)[C@@H]2OCC[C@@H]2Cn2cccn2)[C@H]1c1ccccc1 , and I need its recorded pEC50.
*A* 5.00 to 6.00

*Q* Continue with COc1ccc(C(C)(C)C)cc1CN[C@H]1[C@H](C(C)(C)C)[C@@H](C(=O)O)N(C(=O)c2cnn(-c3ccc(F)cc3F)c2C)[C@H]1c1ccccc1
*A* > 6.00

*Q* Item: COc1ccc(C(C)(C)C)cc1CN[C@H]1[C@H](C(C)(C)C)[C@@H](C(=O)O)N(C(=O)OC(C)C)[C@H]1c1cccnc1N(C)C
*A* 5.00 to 6.00

*Q* Now the compound COc1ccc(C(C)(C)C)cc1CN[C@H]1[C@H](C(C)(C)C)[C@@H](C(=O)O)N(C(=O)C2CCN(C(=O)C3CC3)CC2)[C@H]1c1ccccc1
*A* 5.00 to 6.00

*Q* Consider next the compound CC(C)OC(=O)N1[C@H](c2ccccc2)[C@H](Nc2cccc(C(F)(F)F)n2)[C@@H](C(C)(C)C)[C@@H]1C(=O)O (racemic) in the same way.
*A* 5.00 to 6.00

*Q* Same for COc1ccc(C23CC(C2)C3)cc1CN[C@H]1[C@H](C(C)(C)C)[C@@H](C(=O)O)N(C(=O)OC(C)C)[C@H]1c1cccnc1OC(F)F
*A* 5.00 to 6.00

*Q* Record: COc1ccc(C(C)(C)C)cc1CN[C@H]1[C@H](C(C)(C)C)[C@@H](C(=O)O)N(C(=O)C2Cc3ccccc3O2)[C@H]1c1cccnc1N(C)C (single isomer, unassigned) [Example 36]
*A* > 6.00

*Q* Continue with COc1cnc(-c2ccc(C)cc2F)cc1CN[C@H]1[C@H](C(C)(C)C)[C@@H](C(=O)O)N(C(=O)C2CCCCC2)[C@H]1c1ccccc1
*A* > 6.00

*Q* Next compound up: COc1ccc(C2(C)CCC2)cc1CN[C@H]1[C@H](C(C)(C)C)[C@@H](C(=O)O)N(C(=O)OC(C)C)[C@H]1c1ccccc1
*A* 5.00 to 6.00

*Q* How about COc1ncc(C(F)(F)F)cc1CN[C@H]1[C@H](C(C)(C)C)[C@@H](C(=O)O)N(C(=O)[C@@H]2CCCC(F)(F)C2)[C@H]1c1ccccc1 ?
*A* > 6.00

====

Quick list: Emax per entry.
assaySystem: F508delCFTR (Homo sapiens, UniProt P13569, DEL508-508)
Construct: expressed in transfected cells; host or cells: CFBE41o- human lung-derived epithelial cells (CFBE4lo-F508delCFTR-HRP), doxycycline-inducible
procedureSummary: Cell Surface Expression-Horse Radish Peroxidase (CSE-HRP) Assay;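 as to Maximum % activity (without co-corrector): percent of the 2 µM on-plate positive control corrector response above DMSO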
Format: cell-based
appliedConditions: CSE-HRP; without co-corrector; maximum at any tested concentration, normalized to on-plate positive control; read-out: Maximum % activity (without co-corrector)

Worked examples follow.
CC(C)(C)[C@H]1[C@H](NCc2cc(C(F)(F)F)cc(C(F)(F)F)c2)[C@H](c2ccccc2)N(C(=O)C2CCCCC2)[C@@H]1C(=O)O [II-108] | < 100%
COc1cc(C(F)(F)F)ccc1CN[C@H]1[C@H](C(C)(C)C)[C@@H](C(=O)O)N(C(=O)[C@@H](OC)c2ccccc2)[C@H]1c1ccccc1 [II-65] | 100 to 200%

*Q* Which measured Emax belongs to COc1ccc(C(C)(C)C)cc1CN[C@H]1[C@H](C(C)(C)C)[C@@H](C(=O)O)N(C(=O)C2CCCCC2)[C@H]1c1ccccc1OC [II-140] , tested on F508delCFTR (Homo sapiens, UniProt P13569, DEL508-508)?
*A* 100 to 200%

*Q* Next entry: COc1cc(C(C)(C)C)ccc1CN[C@H]1[C@H](C(C)(C)C)[C@@H](C(=O)O)N(C(=O)OC(C)C)[C@H]1c1ccccc1OC [II-135]
*A* 100 to 200%

*Q* Also need COc1ccc(Cl)c2c1CN([C@H]1[C@H](C(C)(C)C)[C@@H](C(=O)O)N(C(=O)[C@@H]3CCCCO3)[C@H]1c1ccccc1C(C)C)C2 [Example I-308] , thanks.
*A* < 100%

*Q* Moving on to the next molecule: COc1ncccc1CN[C@@H]1[C@@H](C(C)(C)C)[C@H](C(=O)O)N(C(=O)C2CCCCC2)[C@@H]1c1ccccc1 (racemic) [II-6]
*A* 100 to 200%
